assay: basal RPMI8226 mitochondrial membrane potential changes, profiling panel, cell-based, JC-1 fluorescence, 24 h, 100 nL compound (AID 1169); settings: RPMI8226 myeloma, JC-1 mitochondrial potential fluorescence, higher = more signal; further: test concentration not given here
Class label 1: z-score at least -0.4. Class label 0: z-score below -0.4.

Solved cases (3 shown):
| COMPOUND | CLASSIFICATION |
| --- | --- |
| COCCCNC(=O)[C@@]1(Cc2ccccc2I)c2ccccc2C(=O)N(Cc2ccccc2C(F)(F)F)[C@H]1c1ccc(CO)cc1 | label 0 |
| CC(CO)N1C(=O)[C@@H]2[C@H]3C(=O)OCC=C[C@H]3OC23C=CCN(c2ccc4ccccc4c2)C(=O)[C@@H]13 (stereo not given in full) | label 1 |
| COC(=O)[C@@]1(Cc2ccc(F)cc2)[C@H]2c3cc(C(=O)N4CCCC4)n(CCc4c[nH]c5cc(F)ccc45)c3C[C@H]2CN1C(=O)c1ccccc1 | label 0 |

Tell me whether z-score is at least -0.4 here: COc1ccc([Si](C)(C)[C@H]2[C@H](CC(=O)N(CCO)Cc3ccccc3)O[C@@]3(C(=O)N(Cc4ccc(N5C(=O)c6cccc7cccc5c67)cc4)c4ccccc43)[C@@H]2C)cc1
label 0

Could you tell me if the measured z-score of CN1C(=O)C2CC=C(C3=CCO[C@@H]3[C@H]3CCCN3S(=O)(=O)c3ccccc3[N+](=O)[O-])CC2C1=O (stereo not given in full) reaches -0.4 or more?
label 1

Kindly determine if z-score recorded for COC(=O)[C@@]1(Cc2ccccc2)[C@H]2c3cc(C(=O)N(C)C)n(CCF)c3C[C@H]2CN1C(=O)c1ccccc1 is above or exactly -0.4.
label 1

Hi, just wondering whether COC(=O)[C@@]1(Cc2ccc(F)cc2)[C@H]2c3cc(C(=O)N(C)C)n(Cc4cccc5ccccc45)c3C[C@H]2CN1C(=O)c1ccccc1 shows z-score of -0.4 or higher.
label 1

Does the compound COC(=O)[C@H](Cc1ccccc1)N1CC(C)(OC)O[C@@H](Cc2ccccc2)[C@H]1/C=C/C1CC1 (stereo not given in full) have recorded z-score that is -0.4 or more?
label 1

Has COC(=O)C(CC#Cc1ccc2c(c1)[C@]1(C(=O)N2)[C@H](c2ccc(OCCO)cc2)N2[C@H](c3ccccc3)[C@H](c3ccccc3)OC(=O)[C@H]2[C@@H]1C(N)=O)C(=O)OC a recorded z-score greater than or equal to -0.4?
label 0

Data provenance: PubChem BioAssay
